Cited source: the supplement of paper PMC10567573

B1: ZNF649 (parent)
chain: YQAGKPDALTKLEQGEPLWTLEDE

Variants of: B1
Experiment: protein stability index of a GFP-peptide fusion (GPS, HEK-293T) (PSI 1-6); higher = more stable;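 further: lentivirally expressed fusions sorted by FACS into six bins by GFP to DsRed ratio, PSI derived from sequencing read proportions per bin multiplied by bin number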
Details: c terminus: a fixed tail appended

{"columns": ["Variant spec", "protein stability index"],
 "data": [
  ["Q2E", 5.66],
  ["Q2Y", 3.56],
  ["G4H", 4.58],
  ["E22A", 4.8],
  ["D7L", 3.15],
  ["P6V", 4.42],
  ["K5I", 4.02],
  ["P17Y", 3.23],
  ["K5N", 4.84],
  ["L9D", 5.48],
  ["A8L", 3.56],
  ["E24V", 3.42],
  ["L9I", 4.69],
  ["D23E", 4.57],
  ["Q14S", 4.13],
  ["T20Y", 4.7],
  ["L21M", 3.88],
  ["E16F", 2],
  ["P17W", 3.36],
  ["Q2C", 3.87],
  ["L12P", 4.38],
  ["E22S", 2.75]
]}
